The measurements presented in this section are drawn from ChEMBL document CHEMBL4390658.

Molecular target: Aromatase (Homo sapiens, UniProt P11511)
Sequence (P11511 whole entry): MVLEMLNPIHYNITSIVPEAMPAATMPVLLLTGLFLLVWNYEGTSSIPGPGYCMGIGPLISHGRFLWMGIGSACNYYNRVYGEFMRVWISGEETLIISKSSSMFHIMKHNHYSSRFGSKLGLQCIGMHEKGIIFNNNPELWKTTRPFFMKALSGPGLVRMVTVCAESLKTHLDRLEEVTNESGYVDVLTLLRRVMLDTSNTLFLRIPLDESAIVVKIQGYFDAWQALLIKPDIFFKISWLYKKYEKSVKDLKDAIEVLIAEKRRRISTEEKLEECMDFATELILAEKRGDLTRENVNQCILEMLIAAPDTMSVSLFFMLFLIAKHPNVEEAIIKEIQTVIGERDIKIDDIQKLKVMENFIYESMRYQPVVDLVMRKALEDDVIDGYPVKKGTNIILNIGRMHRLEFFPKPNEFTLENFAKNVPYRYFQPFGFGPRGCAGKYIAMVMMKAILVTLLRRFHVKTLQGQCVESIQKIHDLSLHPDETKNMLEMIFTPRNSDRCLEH
Test: Mixed type inhibition of recombinant human aromatase assessed as substrate Vmax preincubated for 10 mins followed by different substrate concentration and beta-NADP+ addition and measured for 60 mins by fluorescence method based Cornish-Bowden direct linear analysis (reference value: 91.5 /ms)
Settings: 1 h
Endpoint: Vmax (U/ms)

{"Mol Smiles": "O=C(CCc1ccc(O)c(Cl)c1)NCc1csc(=O)[nH]1", "Assay Value": 78.7}
{"Mol Smiles": "CC[C@H](Nc1cc(C)nc(Nc2cccc(O)c2)n1)c1nccs1", "Assay Value": 15.1}
{"Mol Smiles": "O=C1c2c(O)ccc(O)c2C(=O)c2c(NCCCO)ccc(NCCCO)c21", "Assay Value": 16.2}
{"Mol Smiles": "COC(=O)c1ccc(NCC2=CC(=O)c3ccccc3C2=O)cc1", "Assay Value": 60.6}
{"Mol Smiles": "N[C@@H]1CCN(Cc2cc(O)c3cc(F)ccc3n2)C[C@H]1O", "Assay Value": 50.7}

====

Overview of reported pIC50 across a group of molecules:
Target: Aromatase (Homo sapiens, UniProt P11511)
Test: Inhibition of recombinant human aromatase preincubated for 10 mins followed by substrate and beta-NADP+ addition and measured for 60 mins by fluorescence method
pIC50: −log10 of the molar value.
Endpoint: pIC50

{"Molecule": "N[C@@H]1CCN(Cc2cc(O)c3cc(F)ccc3n2)C[C@H]1O", "Endpoint": "pIC50", "Assay Value": 4.68}
{"Molecule": "O=C(CCc1ccc(O)c(Cl)c1)NCc1csc(=O)[nH]1", "Endpoint": "pIC50", "Assay Value": 4.66}
{"Molecule": "CC[C@H](Nc1cc(C)nc(Nc2cccc(O)c2)n1)c1nccs1", "Endpoint": "pIC50", "Assay Value": 5.29}
{"Molecule": "CC/C(=C(\\c1ccc(O)cc1)c1ccc(OCCNC)cc1)c1ccccc1 [ENDOXIFEN]", "Endpoint": "pIC50", "Assay Value": 5.21}
{"Molecule": "O=C1c2c(O)ccc(O)c2C(=O)c2c(NCCCO)ccc(NCCCO)c21", "Endpoint": "pIC50", "Assay Value": 4.96}
{"Molecule": "COC(=O)c1ccc(NCC2=CC(=O)c3ccccc3C2=O)cc1", "Endpoint": "pIC50", "Assay Value": 4.02}

====

Target: UniProtKB P11511
Assay: Inhibition of recombinant human aromatase at 100 uM preincubated for 10 mins followed by substrate and beta-NADP+ addition and measured for 60 mins by fluorescence method
Settings: 1 h
Overview of reported inhibition at 100 µM across a group of compounds:
Endpoint: inhibition at 100 µM (%)

{"Compound": "O=C(NCc1cc[nH]c(=O)c1)c1ccc(COCC(F)(F)F)cc1", "Endpoint": "inhibition at 100 µM", "Assay Value": 3}
{"Compound": "CC(C)(C)NCC(O)COc1cccc2c1C[C@H](O)[C@H](O)C2 (stereo not given in full) [NADOLOL]", "Endpoint": "inhibition at 100 µM", "Assay Value": 0}
{"Compound": "Nc1nc(O)cc(NC(=S)Nc2ccc(C(=O)O)cc2)n1", "Endpoint": "inhibition at 100 µM", "Assay Value": 8}
{"Compound": "COc1ccc([C@@H](O)CNC(=O)N[C@@H]2CCCCNC2=O)cc1", "Endpoint": "inhibition at 100 µM", "Assay Value": 4}
{"Compound": "N[C@@H]1CCN(Cc2cc(O)c3cc(F)ccc3n2)C[C@H]1O", "Endpoint": "inhibition at 100 µM", "Assay Value": 39}
{"Compound": "COC(=O)c1ccc(NCC2=CC(=O)c3ccccc3C2=O)cc1", "Endpoint": "inhibition at 100 µM", "Assay Value": 86}
{"Compound": "CC/C(=C(\\c1ccc(O)cc1)c1ccc(OCCNC)cc1)c1ccccc1 [ENDOXIFEN]", "Endpoint": "inhibition at 100 µM", "Assay Value": 11}
{"Compound": "O=C1c2c(O)ccc(O)c2C(=O)c2c(NCCCO)ccc(NCCCO)c21", "Endpoint": "inhibition at 100 µM", "Assay Value": 83}
{"Compound": "O=c1cc(CO)oc([C@H](Nc2ccccn2)c2ccccc2O)c1O", "Endpoint": "inhibition at 100 µM", "Assay Value": 0}
{"Compound": "C[C@@H](NC(=O)c1ccc(=O)[nH]c1)c1ccc2[nH]c(=O)[nH]c2c1", "Endpoint": "inhibition at 100 µM", "Assay Value": 27}
